Quick list: % thrombin activity, Repeat screen per entry.
target entity: thrombin (Homo sapiens)
Construct: consists of two polypeptide chains of 36 (light chain) and 259 amino acid
assay name: Thrombin inhibition screen of crude macrocycle reactions (residual thrombin activity, fluorogenic substrate Z-Gly-Gly-Arg-AMC)
Type: biochemical
test settings: 10 µM macrocycle concentration; macrocycles containing acid 14; crude reaction; replicate reaction and screen
Numbered stars: 1 amine (or outer) side, 2 acyl side, 3 side chain; on linkers, the order of the positions; unused ones are H or OH. Bridge positions count the residues as written; N and C are the ends. Square brackets hold non-standard residues; d marks the D form. Peptide text beside a SMILES is read from it. * marks the point of attachment. ξ: configuration not given here. ξPro(4-NHCO(5-Cl-2-thienyl)) = O=C(NC1CNC(C(=O)O)C1)c1ccc(Cl)s1; 2Thenoyl(5-Cl) = O=C(c1ccc(Cl)s1)*; Cysteamide = C(CS[*:3])N[*:1]; Mpa = O=C(O)CCS

compound	% thrombin activity, Repeat screen, %
O=C1NC2(CCN(C(=O)c3ccc(Cl)s3)CC2)C(=O)N[C@@H](CO)C(=O)NCCSSCCC(=O)N2CCC[C@H]1C2	85.3
CC(C)CC1NC(=O)C2CCCN2C(=O)CCSSCCNC(=O)C2CC(NC(=O)c3ccc(Cl)s3)CN2C1=O (centres unmarked) [X B1 L D5] ([Mpa]PL[ξPro(4-NHCO(5-Cl-2-thienyl))]-Cysteamide; disulfide 1-C; configuration not given here)	99.9
CC[C@H](C)[C@@H]1NC(=O)CCSSCCNC(=O)c2ccc(cc2)CNC(=O)[C@H](CNC(=O)c2ccc(Cl)s2)NC1=O	104.9
O=C1CCSSCCNC(=O)C2CCCN2C(=O)C2CC(NC(=O)c3ccc(Cl)s3)CN2C(=O)C(Cc2ccc(O)cc2)N1 (centres unmarked) [X Y D5 B1] ([Mpa]Y[ξPro(4-NHCO(5-Cl-2-thienyl))]P-Cysteamide; disulfide 1-C; configuration not given here)	97.0
C[C@H]1NC(=O)C2(CCN(C(=O)c3ccc(Cl)s3)CC2)NC(=O)c2cccc(c2)CNC(=O)CCSSCCNC1=O	89.2
O=C1CCSSCCNC(=O)c2ccc(cc2)CNC(=O)[C@H](Cc2c[nH]c3ccccc23)NC(=O)[C@H](CNC(=O)c2ccc(Cl)s2)N1	109.4
O=C1CCSSCCNC(=O)c2ccc(cc2)CNC(=O)[C@H](CCCCNC(=O)c2ccc(Cl)s2)NC(=O)[C@@H](Cc2ccccc2)N1 [X f D1 B3]	105.5
O=C1CCSSCCNC(=O)C2CCCN(C2)C(=O)C(CCCCNC(=O)c2ccc(Cl)s2)NC(=O)C(Cc2ccc(O)cc2)N1 (centres unmarked) [X Y D1 B4]	97.0
CC(C)C[C@@H]1NC(=O)c2ccc(cc2)CNC(=O)CCSSCCNC(=O)C2(CCN(C(=O)c3ccc(Cl)s3)CC2)NC1=O	94.4
C[C@H]1NC(=O)CCSSCCNC(=O)c2ccc(cc2)CNC(=O)[C@@H]2C[C@H](NC(=O)c3ccc(Cl)s3)CN2C1=O	116.2
O=C1CCSSCCNC(=O)C2CCCN2C(=O)C2CC(NC(=O)c3ccc(Cl)s3)CN2C(=O)C(Cc2c[nH]c3ccccc23)N1 (centres unmarked) [X W D5 B1] ([Mpa]W[ξPro(4-NHCO(5-Cl-2-thienyl))]P-Cysteamide; disulfide 1-C; configuration not given here)	119.4
CC(C)CC1NC(=O)C2CC(NC(=O)c3ccc(Cl)s3)CN2C(=O)CCSSCCNC(=O)C2CCCN(C2)C1=O (centres unmarked)	89.4
O=C1CCSSCCNC(=O)C(CNC(=O)c2ccc(Cl)s2)NC(=O)C(Cc2ccccc2)NC(=O)c2ccc(cc2)CN1 (centres unmarked)	59.9
NC(=O)CC[C@@H]1NC(=O)[C@H](CNC(=O)c2ccc(Cl)s2)NC(=O)CCSSCCNC(=O)C2(CC2)CNC1=O	67.3
CC(C)[C@H]1NC(=O)[C@H](CCCCNC(=O)c2ccc(Cl)s2)NC(=O)[C@@H]2CCCN2C(=O)CCSSCCNC1=O [X B1 D1 v] ([Mpa]PK(2Thenoyl(5-Cl))[dV]-Cysteamide; disulfide 1-C)	109.9
CC[C@H](C)[C@@H]1NC(=O)CCNC(=O)[C@H](CCCNC(=O)c2ccc(Cl)s2)NC(=O)CCSSCCNC1=O [X D2 B2 I]	92.2
CC1NC(=O)CCSSCCNC(=O)C2CCCN(C2)C(=O)C(CNC(=O)c2ccc(Cl)s2)NC1=O (centres unmarked)	98.7
O=C(NCCCCC1NC(=O)C2CCCN(C2)C(=O)CCSSCCNC(=O)C(CO)NC1=O)c1ccc(Cl)s1 (centres unmarked) [X B4 D1 S]	99.9
O=C1NCCSSCCC(=O)N2CC(NC(=O)c3ccc(Cl)s3)CC2C(=O)NC(CO)C(=O)NCc2ccc1cc2 (centres unmarked)	101.4
C[C@H]1NC(=O)CCSSCCNC(=O)[C@H]2CCCN(C2)C(=O)[C@H](CCCCNC(=O)c2ccc(Cl)s2)NC1=O [X a D1 B4]	109.1
O=C1CCSSCCNC(=O)[C@@H](Cc2ccccc2)NC(=O)c2ccc(cc2)CNC(=O)[C@H](CNC(=O)c2ccc(Cl)s2)N1	84.4
C[C@H]1NC(=O)[C@@H]2CCCN2C(=O)[C@H](CCCCNC(=O)c2ccc(Cl)s2)NC(=O)CCSSCCNC1=O [X D1 B1 a] ([Mpa]K(2Thenoyl(5-Cl))P[dA]-Cysteamide; disulfide 1-C)	103.7
O=C1CCSSCCNC(=O)[C@H](CNC(=O)c2ccc(Cl)s2)NC(=O)[C@@H](Cc2ccc(O)cc2)NC(=O)c2ccc(cc2)CN1	89.2
